test system: NF-κB; assay: NF-κB assay: THP1-NF-κB-LUC cells, LPS-stimulated secreted luciferase; assay type: cell-based; details: THP1-NF-κB-LUC cells; compounds 2 hours before LPS (10 ng/mL) for 18 hours; secreted luciferase; read-out: IC50 (NF-κB assay)
Value type: IC50

{"Compound": "COc1ccc2[nH]cc(S(=O)(=O)c3ccc(F)cc3)c(=O)c2n1 [BC19202]", "IC50": "> 10 µM"}
{"Compound": "CCc1ccc2c(c1)c(=O)c(S(=O)(=O)c1ccc(C)cc1)cn2C [BC18326]", "IC50": "> 10 µM"}
{"Compound": "Cc1cc2c(cc1S(=O)(=O)Nc1cccc(F)c1)OCCN2C [BC181363]", "IC50": "> 10 µM"}
{"Compound": "Cc1ccc([S+]([O-])c2cnccc2O)c(C)c1 (centres unmarked) [BC19458]", "IC50": "> 10 µM"}

Now, please, on to the next compound.
Asked: Look up IC50 for this compound: CCS(=O)(=O)c1cc2c(c(S(=O)(=O)Nc3ccc(C)c(Cl)c3)c1)OCC(=O)N2 [BC19544]
Given back: < 0.1 µM

Provenance of the data: patent US12606528B2
